target: UniProtKB P22303; experiment: cell-based; conditions: potency (IC50), SH-SY5Y spheroids (48 h)
Sequence (P22303 32-614): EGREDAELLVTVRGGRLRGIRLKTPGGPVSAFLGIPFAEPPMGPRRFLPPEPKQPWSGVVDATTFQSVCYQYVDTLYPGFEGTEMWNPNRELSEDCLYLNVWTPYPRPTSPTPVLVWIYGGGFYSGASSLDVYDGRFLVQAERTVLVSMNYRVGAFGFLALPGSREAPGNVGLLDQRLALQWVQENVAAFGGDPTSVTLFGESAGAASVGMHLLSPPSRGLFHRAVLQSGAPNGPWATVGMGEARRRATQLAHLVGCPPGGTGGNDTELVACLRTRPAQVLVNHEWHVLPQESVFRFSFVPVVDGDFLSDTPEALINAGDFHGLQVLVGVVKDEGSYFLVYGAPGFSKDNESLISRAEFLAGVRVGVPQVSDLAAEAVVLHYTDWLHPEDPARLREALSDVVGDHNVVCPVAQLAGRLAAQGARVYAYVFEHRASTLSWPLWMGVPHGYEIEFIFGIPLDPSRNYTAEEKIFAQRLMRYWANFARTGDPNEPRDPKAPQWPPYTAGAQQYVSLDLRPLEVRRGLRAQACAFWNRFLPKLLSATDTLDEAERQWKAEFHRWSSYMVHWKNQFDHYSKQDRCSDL
Record form. Attribute: pIC50. Fill in for each entry.
Please treat pIC50 as minus the base-10 logarithm of the molar concentration.

[Q] Which pIC50 value is on record for `CCOC(=O)CCN(SN(C)C(=O)Oc1cccc2c1OC(C)(C)C2)C(C)C` ?
[A] 6.08

[Q] Which pIC50 value is on record for CN1C[C@H](CNC(=O)OCc2ccccc2)C[C@@H]2c3cccc4c3c(cn4C)C[C@H]21 [Metergoline, reference compound] ?
[A] 5.38

[Q] Which pIC50 value is on record for C=CC[N+]1([C@H]2C[C@H]3[C@@H]4CC[C@H]5C[C@H](OC(C)=O)[C@@H](N6CCCCC6)C[C@]5(C)[C@H]4CC[C@]3(C)[C@H]2OC(=O)CC)CCCCC1 [Rapacuronium bromide, reference compound] ?
[A] 4.65

[Q] Which pIC50 value is on record for CCOP(=S)(OCC)SC(CCl)N1C(=O)c2ccccc2C1=O (centres unmarked) ?
[A] 4.80

[Q] Which pIC50 value is on record for `CCOP(=S)(OCC)O/N=C(\C#N)c1ccccc1` ?
[A] 4.89

[Q] Which pIC50 value is on record for `CNC(=O)Oc1cccc2c1OC(C)(C)O2` ?
[A] 4.27

[Q] Which pIC50 value is on record for CCCSP(=O)(OCC)Oc1ccc(Br)cc1Cl (centres unmarked) ?
[A] 5.54

[Q] Which pIC50 value is on record for `CCCCSP(=O)(SCCCC)SCCCC` ?
[A] 4.92

Data origin, for the record: paper PMC8041433
